# experimental target: T1, recombinant human pro-sPLA2-GIB (pro form of group IB pancreatic phospholipase A2) (human, UniProt P04054 16-148)
# T1 construct: also called pro-sPLA2-IB; proPLA2-GIB
# T1 sequence (P04054 16-148): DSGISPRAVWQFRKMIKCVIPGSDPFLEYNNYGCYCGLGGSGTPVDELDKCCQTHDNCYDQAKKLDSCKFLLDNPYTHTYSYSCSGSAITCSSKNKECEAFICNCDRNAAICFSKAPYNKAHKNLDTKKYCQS
# experiment notes: competition ELISA on coated pro-sPLA2-IB; competitor biotinylated 7A10
value type: percentage of signal (%)
Only the number, expressed in %, is required.

#22C6 (antibody, IgG2a, V domains shown) VH: EVQLQESGPGLVKPSQTVSLNCTVTGHSITDDNYYWSWIRLVSGSKLEWIGYITSAGNTDNNPSLKSRISITRDISKNQFFLHLSSVTAEDTATYYCARDSTDGDFYFEKWGQGTTLTVSS VL: EIVLTQSPTTMAASPGEKITITCSVSSSISPNFLHWYQQKPGFSPKLLIFRTSNLASGVPTRFSGSGSGTSYSLTIGTMEAEDVATYYCHQGNSLPLTFGAGTKLELKR :: 141
#14G9 (antibody, IgG1, V domains shown, also called monoclonal antibody 14G9; #14G9 mAb) VH: QVQLQQPGAELVKPGASVKLSCKASGYTFTNYWIHWVKRRPGQGLEWIGNIDPSDTRTHYNQKFKDKATLAVDKSSSTAYMQLSSLTSEDSAVFYCARQTLYYEALDYWGQGTTLTVSS VL: DIVMTQSHKLMSTSVGDRVSITCKASQDVSTAVAWYQEKPGQSPKLLIYWASTRHTGVPNRFTGSRSGTDYTLTISSVQAEDLALYYCQQDYSTPPTFGAGTKLELKR :: 141

API: the following record is the query input.
Q: Param item = #24B2 (antibody, IgG2a, V domains shown) VH: DVQVQESGPGLVKPSQTVSLNCTVTGHSITDDNYYWSWIRLVSGSKLEWIGYITSSGSTDINPSLKSRISITRDISKNQFFLHLNSVTAEDTATYYCARDSTDGDFYFEKWGQGTTLTVSS VL: DIVLTQSPASLAVSLGQRATISCRASESVDNYGISFMHWYQQKPGQPPKLLIYRASNLESGIPARFSGSGSRTDFTLTINPVETDDVATYYCQQSSRDLFTFGGGTKLEIKR ; retrieve measured percentage of signal.
Result: 135
